# IC50 per record follows
# measurementTarget: Tyrosine-protein kinase BTK (Homo sapiens)
# Sequence (Q06187 whole entry): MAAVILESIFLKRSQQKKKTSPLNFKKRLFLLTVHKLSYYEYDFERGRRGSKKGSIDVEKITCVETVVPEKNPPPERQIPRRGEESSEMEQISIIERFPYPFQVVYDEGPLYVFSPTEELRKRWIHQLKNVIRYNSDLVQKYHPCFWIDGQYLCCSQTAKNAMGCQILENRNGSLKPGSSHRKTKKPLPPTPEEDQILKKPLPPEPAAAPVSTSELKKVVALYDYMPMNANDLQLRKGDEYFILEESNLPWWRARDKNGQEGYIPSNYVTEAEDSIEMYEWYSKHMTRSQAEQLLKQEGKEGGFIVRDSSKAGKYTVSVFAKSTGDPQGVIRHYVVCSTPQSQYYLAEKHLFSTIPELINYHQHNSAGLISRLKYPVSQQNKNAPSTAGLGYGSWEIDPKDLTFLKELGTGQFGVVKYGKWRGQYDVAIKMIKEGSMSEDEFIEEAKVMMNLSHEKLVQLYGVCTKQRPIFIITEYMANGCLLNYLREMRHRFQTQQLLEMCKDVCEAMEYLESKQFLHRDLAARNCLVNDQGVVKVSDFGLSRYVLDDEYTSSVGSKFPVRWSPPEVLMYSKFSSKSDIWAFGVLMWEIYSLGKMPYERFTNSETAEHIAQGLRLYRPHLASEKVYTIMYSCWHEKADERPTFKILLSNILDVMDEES
# assayName: Inhibition of recombinant full-length His6-tagged BTK (unknown origin) expressed in baculovirus infected Sf9 cells using biotinylated A5 peptide as substrate preincubated for 60 mins followed by substrate addition measured after 120 mins by LANCE TR-FRET assay

>>> print(df.to_string())
                          compoundstructure                         measurementtarget          result
0  COCC(=O)N1CCO[C@@H](c2nc(-c3ccc(C(=O)Nc4cc(C(F)(F)F)ccn4)cc3F)c3c(N)nccn23)C1  Tyrosine-protein kinase BTK (Homo sapiens)  0.37 to 0.4 nM
1  COCC(=O)N1CCC[C@@H](c2nc(-c3ccc(C(=O)Nc4cc(C(F)(F)F)ccn4)cc3F)c3c(N)nccn23)C1  Tyrosine-protein kinase BTK (Homo sapiens)  0.2 to 0.22 nM
2  CC(C)C(=O)N1CCC[C@@H](c2nc(-c3ccc(C(=O)Nc4cc(C(F)(F)F)ccn4)cc3F)c3c(N)nccn23)C1  Tyrosine-protein kinase BTK (Homo sapiens)  0.25 to 0.3 nM

Asked: Return reported IC50; argument: Nc1nccn2c([C@H]3CN(C4CCOCC4)CCO3)nc(-c3ccc(C(=O)Nc4cc(C(F)(F)F)ccn4)cc3F)c12
Given back: 0.59 to 0.6 nM

Asked: Give the measured IC50 of CC(C)C(=O)N1CCO[C@@H](c2nc(-c3ccc(C(=O)Nc4cc(C(F)(F)F)ccn4)cc3F)c3c(N)nccn23)C1 .
Given back: 0.4 to 0.44 nM

Asked: Looking for the measured IC50 of Nc1nccn2c([C@@H]3CCCN(C4CCOCC4)C3)nc(-c3ccc(C(=O)Nc4cc(C(F)(F)F)ccn4)cc3F)c12 , can you help?
Given back: 0.8 to 0.83 nM

----------
# assayName: Oral bioavailability in dog at 2 mg/kg
# Format: ADME, organism-based, Canis lupus familiaris
# measurementConditions: in vivo
# Lookup of reported bioavailability keyed by entry
Give just the numeric value; % need not be written.

                          compoundstructure  quantitativeresult
0  CC(C)C(=O)N1CCO[C@@H](c2nc(-c3ccc(C(=O)Nc4cc(C(F)(F)F)ccn4)cc3F)c3c(N)nccn23)C1                  89

Then there is this molecule:
Asked: Bench note: what bioavailability did C[C@H]1CO[C@@H](c2nc(-c3ccc(C(=O)Nc4cc(C(F)(F)F)ccn4)cc3F)c3c(N)nccn23)CN1C(=O)C1CC1 show?
Given back: 88

----------
# assayName: Half life in dog at 2 mg/kg administered as cassette dose
# Format: ADME, organism-based, Canis lupus familiaris
# measurementConditions: in vivo
propertyName: half-life (h)
Give just the number in h; leave the unit off.

>>> print(df.to_string())
                          compoundstructure  propertyname  quantitativeresult
0  Nc1nccn2c([C@H]3CN(C4CCOCC4)CCO3)nc(-c3ccc(C(=O)Nc4cc(C(F)(F)F)ccn4)cc3F)c12     half-life                 3.1

Now let's try a different one.
Asked: Endpoint output: half-life of COCC(=O)N1CCO[C@@H](c2nc(-c3ccc(C(=O)Nc4cc(C(F)(F)F)ccn4)cc3F)c3c(N)nccn23)C1 . Value?
Given back: 2.5
